# TEST TARGET: Nuclear receptor ROR-gamma (Mus musculus, UniProt P51450)
# Sequence (P51450 whole entry, the tested form may be a part): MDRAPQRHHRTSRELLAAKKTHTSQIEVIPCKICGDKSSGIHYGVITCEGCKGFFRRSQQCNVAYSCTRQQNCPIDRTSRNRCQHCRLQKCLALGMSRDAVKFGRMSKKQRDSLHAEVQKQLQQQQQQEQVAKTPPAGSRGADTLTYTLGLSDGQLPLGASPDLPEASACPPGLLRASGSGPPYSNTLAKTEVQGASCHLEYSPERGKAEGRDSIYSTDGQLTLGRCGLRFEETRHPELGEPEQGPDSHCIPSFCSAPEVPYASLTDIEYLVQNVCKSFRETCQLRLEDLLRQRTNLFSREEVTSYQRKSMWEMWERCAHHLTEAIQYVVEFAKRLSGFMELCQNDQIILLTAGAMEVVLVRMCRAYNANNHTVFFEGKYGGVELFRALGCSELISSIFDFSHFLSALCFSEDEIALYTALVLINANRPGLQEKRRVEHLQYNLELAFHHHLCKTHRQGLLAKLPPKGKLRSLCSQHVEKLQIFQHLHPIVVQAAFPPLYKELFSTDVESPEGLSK
# PROCEDURE SUMMARY: Transrepression of recombinant mouse GAL4-DBD fused RORgammat LBD expressed in HEK293 cells after 20 hrs by luciferase reporter gene assay
# Assay type: cell-based
# pIC50 values compiled below
Scale: negative log10 of molar concentration, which is what pIC50 denotes.

Please review the following examples before continuing.
ITEM SMILES | pIC50
CCS(=O)(=O)c1ccc(CC(=O)Nc2ccc(C(C)(C)C(=O)Nc3cc(Cl)ccn3)cc2)cc1 | 7.00
CCS(=O)(=O)c1ccc(CC(=O)Nc2ccc(C(C)(C)C(=O)N3CCc4ccccc43)cc2)cc1 | 6.96
CCS(=O)(=O)c1ccc(CC(=O)Nc2ccc(C(C)(C)C(=O)Nc3ccccc3)cc2)cc1 | 6.33
CCS(=O)(=O)c1ccc(CC(=O)Nc2ccc(C(C)(C)C(=O)Nc3cc(C(F)(F)F)ccn3)cc2)cc1 | 7.11
CCS(=O)(=O)c1ccc(CC(=O)Nc2ccc(C(C)(C)C(=O)N(C)c3ccccc3)cc2)cc1 | 6.48
CCS(=O)(=O)c1ccc(CC(=O)Nc2ccc(C(C)(C)C(=O)Nc3ccccn3)cc2)cc1 | 5.89

# input Fill in reported pIC50 for this entry: CCS(=O)(=O)c1ccc(CC(=O)Nc2ccc(C(C)(C)C(=O)Nc3cc(C#N)ccn3)cc2)cc1
# output 6.54

# input Fill in reported pIC50 for this entry: CCS(=O)(=O)c1ccc(CC(=O)Nc2ccc(C(C)(C)C(=O)Nc3ccccc3C)cc2)cc1
# output 5.17

# input Fill in reported pIC50 for this entry: CCS(=O)(=O)c1ccc(CC(=O)Nc2ccc(C(C)(C)C(=O)Nc3ccc(F)cc3)c(F)c2)cc1
# output 6.60

# input Fill in reported pIC50 for this entry: CCS(=O)(=O)c1ccc(CC(=O)Nc2ccc(C(C)(C)C(=O)Nc3ccc(F)cc3F)cc2)cc1
# output 5.74

# input Fill in reported pIC50 for this entry: CCS(=O)(=O)c1ccc(CC(=O)Nc2ccc(C(C)(C)C(=O)Nc3ccc(F)cc3F)c(F)c2)cc1
# output 6.47

# input Fill in reported pIC50 for this entry: CCS(=O)(=O)c1ccc(CC(=O)Nc2ccc(C(C)(C)C(=O)N3CC4(CCC4)C3)cc2)cc1
# output 5.00

# input Fill in reported pIC50 for this entry: CCS(=O)(=O)c1ccc(CC(=O)Nc2ccc(C(C)(C)C(=O)N3Cc4ccccc4C3)cc2)cc1
# output 5.72

All values here come from ChEMBL document CHEMBL4261613.
